Origin of values: ChEMBL document CHEMBL3991601

biological target: Tyrosine-protein kinase FRK (Homo sapiens, UniProt P42685); note: in the data inactive means no Kd found up to 30 µM
Sequence (P42685 whole entry): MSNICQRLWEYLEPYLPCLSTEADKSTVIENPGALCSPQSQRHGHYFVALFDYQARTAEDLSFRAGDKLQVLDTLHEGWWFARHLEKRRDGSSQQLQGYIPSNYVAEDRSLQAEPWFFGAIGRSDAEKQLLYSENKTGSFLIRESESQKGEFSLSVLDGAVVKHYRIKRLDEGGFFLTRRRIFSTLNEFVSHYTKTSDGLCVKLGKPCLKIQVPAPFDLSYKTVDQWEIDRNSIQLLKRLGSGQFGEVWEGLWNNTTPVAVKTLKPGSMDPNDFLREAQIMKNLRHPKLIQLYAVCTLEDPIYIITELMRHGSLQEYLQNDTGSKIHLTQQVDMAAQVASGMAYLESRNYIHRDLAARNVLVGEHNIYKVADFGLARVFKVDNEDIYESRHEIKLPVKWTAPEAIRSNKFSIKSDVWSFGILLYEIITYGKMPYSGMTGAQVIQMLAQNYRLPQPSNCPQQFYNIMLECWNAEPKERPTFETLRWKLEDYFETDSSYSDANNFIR
Activity calls are given as the source filed them.
Give your call using only these classes: True = active, False = inactive

Req: Record lookup: outcome of this test for CNC(=O)c1cc(COc2nnc(Nc3ccc(Cl)cc3)c3ccoc23)ccn1 ?
Resp: False

Req: For COc1cc2nccc(Oc3ccc(NC(=O)C4(C(=O)Nc5ccc(F)cc5)CC4)cc3)c2cc1OC [CABOZANTINIB] , what call appears in the results of this test?
Resp: True

Req: # lookup: test call for COc1cccc2cc(-c3nc([C@H]4CC[C@H](C(=O)O)CC4)n4ncnc(N)c34)[nH]c12
Resp: False

Req: Short answer needed: outcome of this test for NC[C@@](O)(c1ccc(Cl)cc1)c1ccc(-c2cn[nH]c2)cc1 ?
Resp: False

Req: // outcome(item) with item = COc1cccc(Nc2ncnn3ccc(CN4CC[C@@H](N)[C@H](O)C4)c23)c1
Resp: True

Req: Could you please tell me the result logged for O=C(NC[C@H](O)CO)c1ccncc1Nc1ccc(I)cc1F in this assay?
Resp: False

Req: Which outcome was assigned to N#CCNC(=O)c1ccc(-c2ccnc(Nc3ccc(N4CCOCC4)cc3)n2)cc1 in this test?
Resp: False

Req: I'd appreciate the recorded outcome for O=c1[nH]c([C@@H]2CCCN2)nc2c1oc1ccc(Cl)cc12 from this test.
Resp: False

Req: I'd appreciate the recorded outcome for COc1cc2ncnc(Nc3ccc(F)c(Cl)c3)c2cc1NC(=O)/C=C/CN1CCCCC1 [DACOMITINIB ANHYDROUS] from this test.
Resp: False

Req: I'd appreciate the recorded outcome for Cn1c(=O)n(-c2ccc(C(C)(C)C#N)cc2)c2c3cc(-c4cnc5ccccc5c4)ccc3ncc21 from this test.
Resp: False

Req: Test call, this compound: Cc1cc(-c2cc(OC(=O)c3ccccc3)ccc2Cl)cc2nnc(Nc3ccc(OCCN4CCCC4)cc3)nc12
Resp: False

Req: Could you kindly confirm the outcome this assay logged for CC(C)(O)CC(=O)NCCn1ccc2ncnc(Nc3ccc(Oc4cccc(C(F)(F)F)c4)c(Cl)c3)c21 ?
Resp: False

Req: Status in this test for CCc1nc(C(N)=O)c(Nc2ccc(N3CCC(N4CCN(C)CC4)CC3)c(OC)c2)nc1NC1CCOCC1 ?
Resp: False

Req: Tell me the assay call for COc1cc(Nc2ncc(F)c(Nc3ccc4c(n3)N(COP(=O)(O)O)C(=O)C(C)(C)O4)n2)cc(OC)c1OC please.
Resp: False

Req: What is the recorded call for this compound in the test? Cc1cc(C(=O)Nc2cc(Oc3ccc4nc(NC(=O)C5CC5)cn4n3)ccc2C)n(C)n1
Resp: False

Req: What outcome does the record of this test show for Cc1c(NC(=O)OC[C@@H]2COCCN2)cn2ncnc(Nc3ccc4c(cnn4Cc4cccc(F)c4)c3)c12 ?
Resp: False
